TESTED TARGET: T1, human RXFP1 (human, UniProt Q9HBX9 1-757)
T1 sequence (looked up): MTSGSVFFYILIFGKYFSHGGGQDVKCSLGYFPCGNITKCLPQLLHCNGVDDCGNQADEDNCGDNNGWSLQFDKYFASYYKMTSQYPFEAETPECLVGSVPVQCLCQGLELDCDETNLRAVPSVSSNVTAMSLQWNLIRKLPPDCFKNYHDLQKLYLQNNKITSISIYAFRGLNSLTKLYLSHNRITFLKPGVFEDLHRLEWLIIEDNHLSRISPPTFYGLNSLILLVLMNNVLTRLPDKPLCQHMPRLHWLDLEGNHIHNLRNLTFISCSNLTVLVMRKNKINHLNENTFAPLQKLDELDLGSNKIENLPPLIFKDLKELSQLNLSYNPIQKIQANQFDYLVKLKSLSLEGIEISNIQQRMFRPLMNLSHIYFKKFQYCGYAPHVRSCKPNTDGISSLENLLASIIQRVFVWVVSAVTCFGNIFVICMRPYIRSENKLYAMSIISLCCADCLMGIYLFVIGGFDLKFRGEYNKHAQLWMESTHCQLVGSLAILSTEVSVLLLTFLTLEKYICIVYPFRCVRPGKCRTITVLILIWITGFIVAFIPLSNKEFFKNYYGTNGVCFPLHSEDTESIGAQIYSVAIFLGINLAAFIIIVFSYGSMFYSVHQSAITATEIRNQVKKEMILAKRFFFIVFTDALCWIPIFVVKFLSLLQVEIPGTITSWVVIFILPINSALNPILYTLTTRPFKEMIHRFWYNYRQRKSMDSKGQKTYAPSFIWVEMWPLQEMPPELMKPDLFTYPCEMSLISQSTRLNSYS
TEST DESCRIPTION: cell-based or functional assay
Entries and their Potency (cAMP, transient hRXFP1 in HEK293)
REPORTED ENDPOINT: Potency (cAMP, transient hRXFP1 in HEK293)

INSERT INTO measurements (binder, endpoint_value) VALUES
  ('SEQ ID NO: 133 (Fc fusion) DKTHTCPPCPAPEAAGGPSVFLFPPKPKDTLMISRTPEVTCVVVDVSHEDPEVKFNWYVDGVEVHNAKTKPREEQYNSTYRVVSVLTVLHQDWLNGKEYKCKVSNKALAAPIEKTISKAKGQPREPQVYTLPPSRDELTKNQVSLTCLVKGFYPSDIAVEWESNGQPENNYKTTPPVLDSDGSFFLYSKLTVDKSRWQQGNVFSCSVLHEALHSHYTQKSLSLSPGKGGSDSYQEEVIKLCGRELVRAQIAICGKSTASDAAGAEAEAGARQLYSALANKCCYVGCTKQSLAQFC', '30.6 nM'),
  ('SEQ ID NO: 130 (Fc fusion) DKTHTCPPCPAPEAAGGPSVFLFPPKPKDTLMISRTPEVTCVVVDVSHEDPEVKFNWYVDGVEVHNAKTKPREEQYNSTYRVVSVLTVLHQDWLNGKEYKCKVSNKALAAPIEKTISKAKGQPREPQVYTLPPSRDELTKNQVSLTCLVKGFYPSDIAVEWESNGQPENNYKTTPPVLDSDGSFFLYSKLTVDKSRWQQGNVFSCSVLHEALHSHYTQKSLSLSPGEGGSDSYQEEVIKLCGRELVRAQIAICGKSTGGEGSGGEGEGGGRQLYSALANKCCKVGCTKRSLAQFC', '24.6 nM'),
  ('SEQ ID NO: 134 (Fc fusion) DKTHTCPPCPAPEAAGGPSVFLFPPKPKDTLMISRTPEVTCVVVDVSHEDPEVKFNWYVDGVEVHNAKTKPREEQYNSTYRVVSVLTVLHQDWLNGKEYKCKVSNKALAAPIEKTISKAKGQPREPQVYTLPPSRDELTKNQVSLTCLVKGFYPSDIAVEWESNGQPENNYKTTPPVLDSDGSFFLYSKLTVDKSRWQQGNVFSCSVLHEALHSHYTQKSLSLSPGKGGSDSYQEEVIKLCGRELVRAQIAICGKSTASDAAGAEAEAGARQLYSALANKCCKVGCTKQSLAQFC', '21.6 nM');

Taken from patent US20250333467A1.
